Each recorded value in this set is attributed to the supplement of paper PMC10646978.

# System: RAW-Dual (murine macrophage reporter line)
# PROCEDURE TEXT: NF-kB reporter (SEAP) activity fold change vs agonist alone; higher = enhanced NF-kB activity
# CONDITION PARAMETERS: modulator concentration 10 µM; agonist: CpG ODN 1826 0.5 ug/mL
RESULT TYPE: NF-kB reporter
# respond with the number and nothing more

INSERT INTO measurements (molecule, result_type, recorded_number) VALUES
  ('O=C(NCCc1csc(-c2ccc(F)cc2)n1)c1ccc(Br)cc1', 'NF-kB reporter', 0.825),
  ('CCc1c(C)nc(-n2nc(C)cc2NC(=O)CSCc2ccccc2)[nH]c1=O', 'NF-kB reporter', 0.901),
  ('CC(=O)c1c(C)c2cnc(Nc3ccc(N4CCNCC4)cn3)nc2n(C2CCCC2)c1=O.Cl', 'NF-kB reporter', 1.27);

Which NF-kB reporter value belongs to `COc1ccc(C(=O)Nc2ccc(Br)c(C)c2)cc1` ?
1.03

// repeat for CC1=C(C(=O)Nc2cccc(C)n2)C(c2cccs2)C2=C(CC(C)(C)CC2=O)N1 (stereo unspecified) and report
1.03

// repeat for `CCc1cccc(C)c1NC(=O)C(C)(C)CC` and report
0.948

---

# Test system: RAW-Dual (murine macrophage reporter line)
# PROCEDURE TEXT: NF-kB reporter (SEAP) activity fold change vs agonist alone; higher = enhanced NF-kB activity
# CONDITION PARAMETERS: modulator concentration 10 µM; agonist: CpG ODN 1826 0.5 ug/mL
RESULT TYPE: NF-kB reporter

Solved entries (count: 10):
INSERT INTO measurements (compound, tgt, result_type, result) VALUES
  ('NC(=O)c1nc(F)cnc1O', 'RAW-Dual (murine macrophage reporter line)', 'NF-kB reporter', 1.06),
  ('Cc1cc(C)c(S(=O)(=O)N2CCN(C(=O)N(C)C)CC2)c(C)c1', 'RAW-Dual (murine macrophage reporter line)', 'NF-kB reporter', 1.83),
  ('Nc1ncn(C2OC(CO)C(O)C2O)c(=O)n1 (stereo unspecified)', 'RAW-Dual (murine macrophage reporter line)', 'NF-kB reporter', 2.76),
  ('CCOC(=O)n1ccn(C)c1=S', 'RAW-Dual (murine macrophage reporter line)', 'NF-kB reporter', 1.26),
  ('O=C(CSc1nc2c(c(=O)n1-c1ccccc1)SCC2)N1CCN(c2ccccc2)CC1', 'RAW-Dual (murine macrophage reporter line)', 'NF-kB reporter', 0.985),
  ('CCOc1ccc2c(c1)C(C)=CC(C)(C)N2', 'RAW-Dual (murine macrophage reporter line)', 'NF-kB reporter', 0.892),
  ('Nc1ccccc1NC(=O)c1ccc(CNc2nccc(-c3cccnc3)n2)cc1', 'RAW-Dual (murine macrophage reporter line)', 'NF-kB reporter', 2.46),
  ('CCN(CC)CCN1C(=O)C(O)=C(C(=O)c2ccc(C)cc2)C1c1ccccc1 (stereo unspecified)', 'RAW-Dual (murine macrophage reporter line)', 'NF-kB reporter', 0.996),
  ('CCOc1ccc(CN(CCc2ccc3c(c2)OCO3)Cc2ccc3ccccc3c2)cc1', 'RAW-Dual (murine macrophage reporter line)', 'NF-kB reporter', 0.733),
  ('Cc1ccc(C(CNC(=O)Cc2cccc3ccccc23)N(C)C)cc1 (stereo unspecified)', 'RAW-Dual (murine macrophage reporter line)', 'NF-kB reporter', 0.647);

Attention now turns to another entry.
Which NF-kB reporter value belongs to `Cc1ccc2nc(NC(=O)CSc3nc4c(c(=O)n3-c3ccccc3)SCC4)sc2c1` ?
0.845
